Kindly state kon for each of the entries shown.
biological target: norovirus GII.3 TCH strain virus-like particle (VLP) (norovirus GII.3 TCH strain); experiment: BLI (BLItz), biotinylated peptide on SA chip, VLP in solution
Ends that are not written are not given here.
Just the number in M⁻¹ s⁻¹, nothing appended.

Query: State, in one line, measured kon of CKARSARGVS (also: biotinylated via PEG3 (AEEEA)-Trp spacer, attachment site and resin-derived C-terminal Lys or Cys not given here) [norovirus-binding peptide of SEQ ID NO: 288]
Response: 2.09e+06

Query: State, in one line, measured kon of ANYRWSRSIK (also: biotinylated via PEG3 (AEEEA)-Trp spacer, attachment site and resin-derived C-terminal Lys or Cys not given here) [norovirus-binding peptide of SEQ ID NO: 263]
Response: 851000

Query: State, in one line, measured kon of RSMSLHVSMT (also: biotinylated via PEG3 (AEEEA)-Trp spacer, attachment site and resin-derived C-terminal Lys or Cys not given here) [norovirus-binding peptide of SEQ ID NO: 283]
Response: 7.86e+06

Query: State, in one line, measured kon of FVWSRRTGLY (also: biotinylated via PEG3 (AEEEA)-Trp spacer, attachment site and resin-derived C-terminal Lys or Cys not given here) [norovirus-binding peptide of SEQ ID NO: 205]
Response: 1.03e+06
